- target_entity: C. elegans (N2) complex I (NADH:ubiquinone oxidoreductase) (Caenorhabditis elegans, UniProt P24887+Q93873+Q94360)
- Sequence (Q94360 17-199): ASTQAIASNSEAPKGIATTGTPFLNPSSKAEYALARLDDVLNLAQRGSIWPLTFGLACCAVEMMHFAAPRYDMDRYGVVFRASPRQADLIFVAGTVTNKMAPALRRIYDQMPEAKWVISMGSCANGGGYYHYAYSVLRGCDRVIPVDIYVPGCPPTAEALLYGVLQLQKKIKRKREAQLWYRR
- Sequence (P24887 whole entry): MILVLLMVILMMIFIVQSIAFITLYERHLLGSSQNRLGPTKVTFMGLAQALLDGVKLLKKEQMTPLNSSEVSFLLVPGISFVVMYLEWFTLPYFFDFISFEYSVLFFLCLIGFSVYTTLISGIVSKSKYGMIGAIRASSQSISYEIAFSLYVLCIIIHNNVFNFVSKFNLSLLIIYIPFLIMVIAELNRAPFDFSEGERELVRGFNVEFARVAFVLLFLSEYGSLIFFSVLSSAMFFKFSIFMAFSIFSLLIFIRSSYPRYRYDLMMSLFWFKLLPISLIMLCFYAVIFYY
- Sequence (Q93873 31-482): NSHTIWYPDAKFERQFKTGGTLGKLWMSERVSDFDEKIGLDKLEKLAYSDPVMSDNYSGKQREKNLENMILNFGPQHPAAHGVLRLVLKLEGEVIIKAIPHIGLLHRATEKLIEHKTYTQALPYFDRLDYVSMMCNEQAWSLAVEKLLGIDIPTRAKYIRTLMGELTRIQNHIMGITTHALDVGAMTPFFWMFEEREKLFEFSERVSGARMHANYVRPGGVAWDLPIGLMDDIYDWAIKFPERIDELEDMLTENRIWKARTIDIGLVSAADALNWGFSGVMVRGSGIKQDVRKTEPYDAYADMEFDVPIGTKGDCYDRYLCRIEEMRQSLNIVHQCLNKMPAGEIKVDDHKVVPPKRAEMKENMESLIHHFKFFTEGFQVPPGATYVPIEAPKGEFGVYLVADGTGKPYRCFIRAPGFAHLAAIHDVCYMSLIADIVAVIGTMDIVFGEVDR
- measurement_protocol: biochemical
- Format: biochemical
- stated_conditions: Dose 0.005 µM; read-out: C. elegans mitochondrial complex I activity
experimental_readout: activity at 0.005 µM (%)
The answer is to be given in %; state only the numeric part.

> print(dat)
                                   compound  units.label  recorded.measurement
1  Cc1ccc(C(C)C)c(OCC(O)Cn2cnc3ccccc32)c1 (centres unmarked)            %                  96.1
2              CCCOc1ccc(Cn2cnc3ccccc32)cc1            %                  86.1
3            Cc1ccc(OCCn2cnc3ccccc32)c(C)c1            %                   101
4      FC(F)(F)c1cccc(OCCCCn2cnc3ccccc32)c1            %                   105

q: Provide only the value of recorded activity at 0.005 µM for Cc1ccc(OCCn2cnc3ccccc32)cc1
a: 90.9

----------
- target_entity: C. elegans (N2) complex I (NADH:ubiquinone oxidoreductase) (Caenorhabditis elegans, UniProt P24887+Q93873+Q94360)
- measurement_protocol: biochemical
- Type: biochemical
- stated_conditions: Dose 0.313 µM; read-out: C. elegans mitochondrial complex I activity
Could you please mark t for values of activity at 0.313 µM below 80% and f for values at or above it?

Example results:
> print(dat)
                         compound  class.label
1   Cc1ccc(SCCCCn2cnc3ccccc32)cc1            t
2  Clc1ccc(SCCCCn2cnc3ccccc32)cc1            t

q: Does the reported activity at 0.313 µM of Cc1nc2ccccc2n1Cc1ccc(Cl)c(Cl)c1 stay below 80%?
a: t

q: Lab note: confirm whether the reported activity at 0.313 µM for this compound is below 80%, equality not counting. compound: CCc1cc(OCCn2cnc3ccccc32)ccc1Cl
a: t

----------
- target_entity: M. musculus (heart) complex I (Mus musculus, UniProt P03888+Q91WD5+Q9DC70)
- Sequence (Q91WD5 34-463): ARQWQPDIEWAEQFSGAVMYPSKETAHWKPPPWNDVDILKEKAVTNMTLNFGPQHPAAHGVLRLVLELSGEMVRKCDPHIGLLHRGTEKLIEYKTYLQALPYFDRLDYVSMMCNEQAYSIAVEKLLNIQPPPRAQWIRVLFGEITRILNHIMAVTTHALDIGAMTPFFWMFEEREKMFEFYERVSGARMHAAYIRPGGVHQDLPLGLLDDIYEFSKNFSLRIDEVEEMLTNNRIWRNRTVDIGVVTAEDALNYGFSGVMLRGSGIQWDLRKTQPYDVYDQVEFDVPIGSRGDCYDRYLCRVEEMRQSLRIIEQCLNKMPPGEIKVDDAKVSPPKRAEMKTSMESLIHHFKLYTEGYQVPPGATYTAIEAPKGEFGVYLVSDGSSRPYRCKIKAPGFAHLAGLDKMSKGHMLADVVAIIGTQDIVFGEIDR
- Sequence (Q9DC70 36-224): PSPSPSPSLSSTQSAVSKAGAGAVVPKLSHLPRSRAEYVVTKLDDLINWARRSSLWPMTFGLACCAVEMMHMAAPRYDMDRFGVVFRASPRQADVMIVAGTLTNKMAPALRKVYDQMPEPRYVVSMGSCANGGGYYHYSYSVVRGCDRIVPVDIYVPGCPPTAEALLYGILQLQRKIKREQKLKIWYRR
- Sequence (P03888 whole entry): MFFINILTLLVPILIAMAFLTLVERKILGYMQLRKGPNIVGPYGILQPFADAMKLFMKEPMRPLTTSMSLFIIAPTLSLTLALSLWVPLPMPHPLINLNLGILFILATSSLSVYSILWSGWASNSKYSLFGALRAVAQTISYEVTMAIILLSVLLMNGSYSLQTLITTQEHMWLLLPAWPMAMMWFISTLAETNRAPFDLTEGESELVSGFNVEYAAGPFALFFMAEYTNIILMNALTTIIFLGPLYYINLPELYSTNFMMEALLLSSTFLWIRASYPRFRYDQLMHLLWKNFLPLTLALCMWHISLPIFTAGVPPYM
- measurement_protocol: biochemical
- Type: biochemical
- stated_conditions: M. musculus; dose 0.125 µM; Mean of replicates; read-out: Complex I activity, dose-response data
experimental_readout: activity at 0.125 µM
Remember to follow the number with its unit.

> print(dat)
                                   compound  recorded.measurement
1  CC(C)Cc1ccc(C(C)c2nc3ccccc3n2C)cc1 (stereo not shown) [NPD8790]                  101%
2  COc1cc2c(cc1OC)C(c1ccc(-c3ccc(Cl)c(Cl)c3)o1)=NCC2 [NPD3577]                 96.8%
3  COc1cc2c(cc1OC)C(C(C)c1ccc(CC(C)C)cc1)=NCC2 (stereo not shown) [NPD10504]                  100%

q: Please report activity at 0.125 µM for the following compound: COc1cc2c(cc1OC)C(/C=C/c1ccc(N(C)C)cc1)=NCC2 [NPD6303]
a: 104%

----------
- Tested on: L1 wild-type C. elegans
- stated_conditions: Dose 0.2 µM; mean of at least three biological replicates
Let's look at some molecules and their measured C. elegans KCN Survival.

> print(dat)
                        molecule  recorded.measurement
1  Cc1ccccc1OCCCn1c(C)nc2ccccc21                 0.930
2      Cc1nc2ccccc2n1CCOc1ccccc1                 0.995

q: Find the measured C. elegans KCN Survival of Nc1nc2ccccc2n1CCOc1ccc(Br)cc1 and report it.
a: 1.013

q: For the molecule Clc1ccc(OCCn2cnc3ccccc32)c(Cl)c1 , give its measured C. elegans KCN Survival value.
a: 0.959

q: Give a short answer stating reported C. elegans KCN Survival for Cc1cccc(OCCn2c(C)nc3ccccc32)c1 .
a: 1.002

----------
- Test system: L1 wild-type C. elegans
- stated_conditions: Dose 0.2 µM; mean of at least three biological replicates
experimental_readout: C. elegans KCN Survival
Number, no unit, nothing else.

Known results for molecules:
> print(dat)
                      input.smiles  recorded.measurement
1   Cc1ccc(OCCn2cnc3ccccc32)c(C)c1                 0.957
2     Clc1ccccc1OCCCCn1cnc2ccccc21                 1.043
3   Clc1ccc(SCCCCn2cnc3ccccc32)cc1                 0.966
4  CCCn1c(COc2ccc(C)cc2)nc2ccccc21                 0.888
5  Cc1nc2ccccc2n1Cc1ccc(Cl)c(Cl)c1                 0.934

q: Using known records, supply C. elegans KCN Survival for Cc1ccc(CSCc2nc3ccccc3[nH]2)cc1
a: 1.008

q: Recall and state the measured C. elegans KCN Survival for CCCOc1ccc(Cn2cnc3ccccc32)cc1 .
a: 0.923

q: Please look at this molecule and report its C. elegans KCN Survival: Cc1ccc(SCCCCn2cnc3ccccc32)cc1
a: 0.989

q: Respond only with C. elegans KCN Survival recorded for Cc1nc2ccccc2n1CCOc1ccccc1Cl
a: 0.982

q: Give a short answer stating reported C. elegans KCN Survival for Clc1ccc(Cn2cnc3ccccc32)c(Cl)c1 .
a: 0.888

----------
Entries annotated with measured activity at 0.001 µM
- target_entity: C. elegans (N2) complex I (NADH:ubiquinone oxidoreductase) (Caenorhabditis elegans, UniProt P24887+Q93873+Q94360)
- measurement_protocol: biochemical
- Type: biochemical
- stated_conditions: Dose 0.001 µM; read-out: C. elegans mitochondrial complex I activity
Number only, in %; omit the unit.

> print(dat)
                       input.smiles  recorded.measurement
1  CC(C)Oc1cccc(OCCn2cnc3ccccc32)c1                  87.5
2      Cc1ccc(SCCCn2cnc3ccccc32)cc1                  88.3

q: Output activity at 0.001 µM of Cc1nc2ccccc2n1Cc1ccc(Cl)c(Cl)c1
a: 93.5

q: Indicate the recorded activity at 0.001 µM value for this molecule: CCCOc1ccc(Cn2cnc3ccccc32)cc1
a: 89.8

q: Specify reported activity at 0.001 µM for the molecule shown: Cc1ccc(CSCc2nc3ccccc3[nH]2)cc1
a: 94.3

----------
- target_entity: B. taurus (heart) complex I (Bos taurus, UniProt P03887+P17694+P42026)
- Sequence (P03887 whole entry): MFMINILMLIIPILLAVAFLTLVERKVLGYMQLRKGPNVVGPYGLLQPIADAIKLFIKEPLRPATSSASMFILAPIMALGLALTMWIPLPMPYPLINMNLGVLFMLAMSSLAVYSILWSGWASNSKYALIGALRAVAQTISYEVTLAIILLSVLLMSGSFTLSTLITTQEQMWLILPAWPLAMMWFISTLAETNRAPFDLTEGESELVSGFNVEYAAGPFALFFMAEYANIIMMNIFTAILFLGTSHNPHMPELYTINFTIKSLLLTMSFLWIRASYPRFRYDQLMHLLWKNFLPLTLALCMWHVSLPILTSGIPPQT
- Sequence (P17694 34-463): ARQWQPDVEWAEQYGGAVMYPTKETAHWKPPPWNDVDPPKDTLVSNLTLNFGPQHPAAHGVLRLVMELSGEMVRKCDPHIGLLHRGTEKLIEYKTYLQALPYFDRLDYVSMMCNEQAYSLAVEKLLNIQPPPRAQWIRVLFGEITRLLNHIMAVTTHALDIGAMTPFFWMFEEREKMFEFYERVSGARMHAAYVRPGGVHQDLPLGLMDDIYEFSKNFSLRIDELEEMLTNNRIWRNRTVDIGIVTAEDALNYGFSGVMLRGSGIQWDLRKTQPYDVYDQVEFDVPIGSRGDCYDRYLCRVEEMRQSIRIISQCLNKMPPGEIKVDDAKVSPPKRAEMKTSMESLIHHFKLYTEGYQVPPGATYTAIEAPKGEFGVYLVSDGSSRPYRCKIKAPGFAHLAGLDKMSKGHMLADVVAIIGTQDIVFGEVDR
- Sequence (P42026 38-216): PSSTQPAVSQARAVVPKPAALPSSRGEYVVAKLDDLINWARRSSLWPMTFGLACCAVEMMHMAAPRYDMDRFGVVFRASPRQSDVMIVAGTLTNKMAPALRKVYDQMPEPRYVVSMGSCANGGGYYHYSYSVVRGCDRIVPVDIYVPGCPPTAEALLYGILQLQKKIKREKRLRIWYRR
- measurement_protocol: biochemical
- Type: biochemical
- stated_conditions: B. taurus; dose 0.0025 µM; Mean of replicates; read-out: Complex I activity, dose-response data
activity at 0.0025 µM by entry:
Express it in %; write the number only.

Study these solved cases before continuing.
> print(dat)
                                   compound                             target.entity  recorded.measurement
1  CC(C)Cc1ccc(C(C)c2nc3ccccc3n2C)cc1 (stereo not shown)  B. taurus (heart) complex I (Bos taurus, UniProt P03887+P17694+P42026)                   104
2  COc1cc2c(cc1OC)C(C(C)c1ccc(CC(C)C)cc1)=NCC2 (stereo not shown)  B. taurus (heart) complex I (Bos taurus, UniProt P03887+P17694+P42026)                   103
3  COc1cc2c(cc1OC)C(c1ccc(-c3ccc(Cl)c(Cl)c3)o1)=NCC2  B. taurus (heart) complex I (Bos taurus, UniProt P03887+P17694+P42026)                   109

Would you kindly look at the next entry?
q: Complete the entry with activity at 0.0025 µM for COc1cc2c(cc1OC)C(/C=C/c1ccc(N(C)C)cc1)=NCC2
a: 91.7

----------
- target_entity: C. elegans (N2) complex I (NADH:ubiquinone oxidoreductase) (Caenorhabditis elegans, UniProt P24887+Q93873+Q94360)
- measurement_protocol: biochemical
- Assay type: biochemical
- stated_conditions: dose 0.063 µM; wild-type C. elegans; mean of replicates; read-out: in vitro complex I activity relative to solvent control, Mean
Output met for records whose remaining activity at 0.063 µM is lower than 60%, not met for records at or above 60%.

Below are worked cases with known answers.
> print(dat)
                                   compound  class.label
1  COC(=O)Nc1nc2ccc(Sc3ccccc3)cc2[nH]1 [fenbendazole, reference compound]      not met
2  C=C(C)[C@H]1Cc2c(ccc3c2O[C@@H]2COc4cc(OC)c(OC)cc4[C@@H]2C3=O)O1 [Rotenone, reference compound]          met

Then this compound:
q: # strict comparison: is reported remaining activity at 0.063 µM < 60%? input = CC(C)(C)c1ccc(CCOc2ncnc3ccccc23)cc1 [Fenazaquin, reference compound]
a: met
